Every entry's value here was drawn from patent US11731976B2.

Measured inhibition at 1 µM, listed per entry for reference.
assay target: human NaV1.6 (hNaV1.6) (Homo sapiens)
Construct: expressed in transfected cells; host or cells: HEK-293
Sequence (Q9UQD0 whole entry): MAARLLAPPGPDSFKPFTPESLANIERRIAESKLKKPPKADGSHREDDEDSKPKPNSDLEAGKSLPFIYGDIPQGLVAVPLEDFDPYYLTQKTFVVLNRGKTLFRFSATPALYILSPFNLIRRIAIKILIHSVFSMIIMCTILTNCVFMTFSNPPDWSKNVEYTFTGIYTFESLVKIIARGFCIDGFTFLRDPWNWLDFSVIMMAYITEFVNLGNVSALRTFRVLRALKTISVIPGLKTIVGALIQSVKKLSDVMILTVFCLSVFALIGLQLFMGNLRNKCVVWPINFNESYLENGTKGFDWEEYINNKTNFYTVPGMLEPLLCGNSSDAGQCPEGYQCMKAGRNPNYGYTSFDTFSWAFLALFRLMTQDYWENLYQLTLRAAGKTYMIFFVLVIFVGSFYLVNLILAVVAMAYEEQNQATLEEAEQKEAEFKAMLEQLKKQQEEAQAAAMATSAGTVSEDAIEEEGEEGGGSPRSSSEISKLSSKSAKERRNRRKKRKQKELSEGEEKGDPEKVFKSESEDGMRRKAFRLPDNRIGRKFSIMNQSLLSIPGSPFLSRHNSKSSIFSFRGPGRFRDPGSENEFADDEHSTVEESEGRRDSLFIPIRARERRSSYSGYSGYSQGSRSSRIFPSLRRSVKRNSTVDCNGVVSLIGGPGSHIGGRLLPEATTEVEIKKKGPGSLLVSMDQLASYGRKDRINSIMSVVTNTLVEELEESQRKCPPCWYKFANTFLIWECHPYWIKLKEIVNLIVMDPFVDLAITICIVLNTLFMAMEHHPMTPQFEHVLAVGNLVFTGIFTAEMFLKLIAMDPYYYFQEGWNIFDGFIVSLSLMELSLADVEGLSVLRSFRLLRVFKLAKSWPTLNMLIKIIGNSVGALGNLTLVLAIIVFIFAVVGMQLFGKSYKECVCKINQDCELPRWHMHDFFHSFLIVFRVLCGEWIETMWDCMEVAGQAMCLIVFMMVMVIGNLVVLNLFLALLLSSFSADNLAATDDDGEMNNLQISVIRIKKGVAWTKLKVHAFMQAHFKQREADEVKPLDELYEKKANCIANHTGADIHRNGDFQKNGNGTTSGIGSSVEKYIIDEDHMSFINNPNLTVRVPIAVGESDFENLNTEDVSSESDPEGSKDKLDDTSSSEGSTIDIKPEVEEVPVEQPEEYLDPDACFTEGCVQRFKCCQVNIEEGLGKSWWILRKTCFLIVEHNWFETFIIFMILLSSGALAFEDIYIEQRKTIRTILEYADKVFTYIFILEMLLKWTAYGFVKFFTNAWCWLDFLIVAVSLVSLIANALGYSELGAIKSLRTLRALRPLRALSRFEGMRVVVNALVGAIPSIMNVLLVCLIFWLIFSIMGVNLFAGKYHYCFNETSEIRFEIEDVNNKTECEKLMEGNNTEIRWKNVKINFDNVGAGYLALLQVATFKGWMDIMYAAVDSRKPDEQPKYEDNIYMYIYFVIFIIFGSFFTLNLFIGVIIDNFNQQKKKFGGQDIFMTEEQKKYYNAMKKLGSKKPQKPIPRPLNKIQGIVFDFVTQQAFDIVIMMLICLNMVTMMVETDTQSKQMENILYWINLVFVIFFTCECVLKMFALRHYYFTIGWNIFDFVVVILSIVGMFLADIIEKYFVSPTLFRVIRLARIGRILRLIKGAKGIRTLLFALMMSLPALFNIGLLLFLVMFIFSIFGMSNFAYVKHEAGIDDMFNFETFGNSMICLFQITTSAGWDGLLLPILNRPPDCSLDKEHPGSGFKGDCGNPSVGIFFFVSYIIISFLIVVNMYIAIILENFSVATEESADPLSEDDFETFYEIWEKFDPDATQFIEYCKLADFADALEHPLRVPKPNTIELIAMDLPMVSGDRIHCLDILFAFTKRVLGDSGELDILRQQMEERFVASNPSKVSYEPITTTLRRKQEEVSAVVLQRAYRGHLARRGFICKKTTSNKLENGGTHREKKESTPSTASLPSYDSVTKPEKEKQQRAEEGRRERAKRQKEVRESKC
experiment: Modulation of late sodium current (INaL), PatchXpress electrophysiology, HEK-293 cells expressing hNaV1.6
Format: cell-based
settings: HEK293, late current evoked by 300 nM ATX-II, read-out: NaV 1.6 Assay Data: percent inhibition of INaL at hNaV1.6
endpoint: inhibition at 1 µM

* COCc1nnc2ccc(-c3cnc(OCC(F)(F)F)c(F)c3)nn12 | < 30%
* COCc1nnc2cnc(-c3cnc(OCC(F)(F)F)c(F)c3)cn12 | < 30%
* COC(F)(F)c1nnc2cnc(-c3ccc(OC4(C(F)(F)F)CCC4)nc3)cn12 | > 70%
* CC(C)COC(F)(F)c1nnc2cnc(-c3cnc(O[C@@H](C)C(F)(F)F)c(F)c3)cn12 | > 70%
* COCc1nnc2cc(C)c(-c3cnc(O[C@H](C)C(F)(F)F)c(F)c3)nn12 | < 30%
* COC(F)(F)c1nnc2ccc(-c3cnc(OC4(C(F)(F)F)CCC4)c(F)c3)nn12 | > 70%
* CCOC(F)(F)c1nnc2ccc(-c3cnc(O[C@H](C)C(F)(F)F)c(F)c3)cn12 | > 70%
* CC(C)COC(F)(F)c1nnc2cnc(-c3cnc(OCC(F)(F)F)c(F)c3)cn12 | > 70%
* FC1(F)CC(Oc2ccc(-c3cn4c(C(F)(F)OC5CC5)nnc4cn3)cn2)C1 | > 70%
* COCc1nnc2cnc(-c3cnc(OC(C)(C)C(F)(F)F)c(F)c3)cn12 | > 70%
* COC(F)(F)c1nnc2cnc(-c3cnc(OC4CC(F)(F)C4)c(F)c3)cn12 | > 70%
* COC(F)(F)c1nnc2ccc(-c3cnc(O[C@@H](C)C(F)(F)F)c(F)c3)nn12 | > 70%
* CCOC(F)(F)c1nnc2ccc(-c3cnc(OC4CC(F)(F)C4)c(F)c3)cn12 | > 70%
* COC(F)(F)c1nnc2cc(C)c(-c3cnc(O[C@H](C)C(F)(F)F)c(F)c3)nn12 | > 70%
* COC(F)(F)c1nnc2cc(C)c(-c3cnc(O[C@@H](C)C(F)(F)F)c(F)c3)nn12 | > 70%
* CCOC(F)(F)c1nnc2ccc(-c3cnc(O[C@@H](C)C(F)(F)F)c(F)c3)cn12 | > 70%
